- procedure.summary: inhibition of 3D7 malaria parasite growth – strain 3D7 (AID 2306);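 note: 0% = DMSO wells and 100% = chloroquine plus artemisinin control wells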
- assay.conditions: P. falciparum 3D7 erythrocytic growth, LDH absorbance, 72 h; at 2 µM; hits give high values
Below: a set of entries, each annotated with reported growth inhibition.
Note: unit % is implicit; provide only the numeric part.

Use these answered entries as a reference point.
>  <compound>
O=S(=O)(Nc1cc2c(cc1OCc1ccccc1)CCN(C1CCC1)CC2)c1ccc(-c2ccc(Cl)cc2)cc1

>  <attribute.measured>
growth inhibition

>  <measured.number>
92

$$$$
>  <compound>
Cc1ccc(NC(=O)Nc2ccc(S(=O)(=O)c3ccc(NC(=O)Nc4ccc(C)c(Cl)c4)cc3)cc2)cc1Cl

>  <attribute.measured>
growth inhibition

>  <measured.number>
99

$$$$

Turning now to a further record.
Can you share its growth inhibition? I mean this compound: CN1CCc2cc(I)c(O)cc2C1Cc1ccccc1Cl (stereo not drawn)
98

====

- procedure.summary: HepG2 cytotoxicity, primary screen, cytotoxicity control for P. falciparum antimalarial project, cell-based, ATP luminescence (AID 2303);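 note: 0% = DMSO wells and 100% = digitonin-killed cells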
- assay.conditions: HepG2 viability, 24-48 h, at 10 µM, hits give high values
attribute.measured: inhibition (%)
Note: unit % is implicit; provide only the numeric part.

>  <structure.smiles>
COc1cccc(C(=O)Nc2nc3c(s2)CCN(Cc2ccccc2N2CCNCC2)CC3)c1

>  <attribute.measured>
inhibition

>  <measured.number>
7

$$$$
>  <structure.smiles>
COc1cc(Cc2cnc(N)nc2N)cc(OCCCc2cc(OCc3ccccc3)no2)c1OC

>  <attribute.measured>
inhibition

>  <measured.number>
30

$$$$
>  <structure.smiles>
Cc1c(C)c2c(c(C)c1O)CC[C@@](C)(C(=O)N1CCC(CCN3CCC(c4c[nH]c5ccccc45)CC3)CC1)O2

>  <attribute.measured>
inhibition

>  <measured.number>
37

$$$$

Turning now to a further record.
Can you share its inhibition? I mean this compound: O=C(/C=C/c1ccc(Cl)c(Cl)c1)NCCCCCN1CC[C@H](NC(=O)Nc2ccc(Oc3ccccc3)cc2)C1
47

====

Below: a set of entries, each annotated with reported growth inhibition.
- procedure.summary: inhibition of 3D7 malaria parasite growth – strain 3D7 (AID 2306);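 note: 0% = DMSO wells and 100% = chloroquine plus artemisinin control wells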
- assay.conditions: P. falciparum 3D7 erythrocytic growth, LDH absorbance, 72 h; at 2 µM; hits give high values
Note: unit % is implicit; provide only the numeric part.

Use these answered entries as a reference point.
>  <molecule>
c1ccc2[nH]c(-c3ccc(-c4ccc(CNCCc5ccncc5)cc4)s3)nc2c1

>  <growth inhibition / %>
101

$$$$
>  <molecule>
c1cc(-c2ccc(CNCc3ccc(-c4csnn4)cc3)cc2)cc(-c2nc3ccccc3[nH]2)c1

>  <growth inhibition / %>
100

$$$$
>  <molecule>
Cn1nccc1C(=O)NCCNCc1ccc(-c2cccc(-c3nc4ccc(C(F)(F)F)cc4[nH]3)c2)cc1

>  <growth inhibition / %>
101

$$$$
>  <molecule>
NC1CCN(Cc2ccc(-c3ccc(-c4nc5ccc(F)cc5[nH]4)s3)cc2)C1 (stereo not given)

>  <growth inhibition / %>
100

$$$$
>  <molecule>
O=C(O)c1cc(C(F)(F)F)co1

>  <growth inhibition / %>
96

$$$$
>  <molecule>
Cc1cc(CNCCCCCCCNCc2ccc(Cl)cc2)ccc1O

>  <growth inhibition / %>
97

$$$$
>  <molecule>
COc1ccc(C=NNc2c3ccccc3nc3ccccc23)c2ccccc12

>  <growth inhibition / %>
82

$$$$
>  <molecule>
COCCn1ccc2c3c(N)nc(N)nc3ccc21

>  <growth inhibition / %>
93

$$$$

Can you share its growth inhibition? I mean this molecule: Cc1cccc(C)c1N1CCN(C2CCC(NC(=O)c3cc4ccccc4[nH]3)CC2)CC1 (stereo not given)
101

Same question, CCNc1cc(C(=O)N[C@@H](Cc2ccccc2)[C@H](O)CNC23CC4CC(CC(C4)C2)C3)cc(N2CCCCS2(=O)=O)c1 this time
98

====

- procedure.summary: antimalarial activity against Dd2 strain (AID 2302);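 note: 0% = DMSO untreated growth and 100% = chloroquine plus artemisinin killed control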
- assay.conditions: P. falciparum Dd2 in RBCs, LDH growth readout, 72 h; at 2 µM
Calls of active or inactive are those of the source.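 The calls were made as follows: active = growth inhibition above 50% at the single 2 µM test dose, taken to imply half-maximal potency below 2 µM; inactive = the rest.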
Output constraint: value belongs to active, inactive

Below are worked cases with known answers.
>  <compound>
O=S(=O)(NCCN1CCCC1)c1ccc(-c2cccc(CNCCc3cccs3)c2)cc1

>  <class>
inactive

$$$$
>  <compound>
COc1ccccc1CCNc1nc(C)cc(N[C@@H](Cc2ccccc2)C(=O)NCc2cccc(F)c2)n1

>  <class>
active

$$$$
>  <compound>
COc1cc2c(cc1OC)C(C(=O)c1ccccc1)=NCC2

>  <class>
active

$$$$
>  <compound>
CCOC(=O)C1=C(C)NC2=C(C(=O)CCC2)C1c1cn(Cc2ccc(Cl)cc2Cl)nc1-c1ccccc1 (stereo not given)

>  <class>
active

$$$$

Could you now look at the following compound, please?
State the result this test recorded for COc1ccccc1NC(=O)Nc1cccc(-c2cccc(-c3nc4ccc(C(F)(F)F)cc4[nH]3)c2)c1 .
active

====

- procedure.summary: HepG2 cytotoxicity, primary screen, cytotoxicity control for P. falciparum antimalarial project, cell-based, ATP luminescence (AID 2303);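 note: 0% = DMSO wells and 100% = digitonin-killed cells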
- assay.conditions: HepG2 viability, 24-48 h, at 10 µM
The source made the active and inactive calls.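 How the source made its calls: active means inhibition above 50%; inactive means the rest.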
Output constraint: value belongs to yes (1) for active, no (0) for inactive

Below are worked cases with known answers.
>  <compound>
COc1ccc(CNC(=O)c2cc3c(=O)n4ccccc4nc3n(CCc3ccccc3)c2=N)cc1

>  <class>
no (0)

$$$$
>  <compound>
CN(Cc1c(Cl)cnn1C)S(=O)(=O)c1ccc2ccccc2c1

>  <class>
no (0)

$$$$
>  <compound>
CCOC(=O)c1cc(=O)c2ccc(OCC#N)cc2o1

>  <class>
no (0)

$$$$
>  <compound>
CN(C)CCCOc1c(C(C)(C)C)cc(-c2cc(C(C)(C)C)c(OCCCN(C)C)c(C(C)(C)C)c2)cc1C(C)(C)C

>  <class>
no (0)

$$$$

Could you now look at the following compound, please?
State the result this test recorded for CCc1cc(NCc2ccncc2)nc(Nc2ccc(F)cc2)n1 .
no (0)

====

- target.desc: Protein kinase 7 (PK7), Plasmodium falciparum 3D7 (PF3D7_0213400) (UniProt Q7YTF7)
- procedure.summary: inhibition of Plasmodium PK7 catalytic activity – biochemical, TCAMS antimalarial set, Kinase-Glo luminescence (AID 1159587)
- assay.conditions: recombinant PfPK7, Kinase-Glo ATP depletion luminescence
Activity calls are given as the source filed them. The rule behind the calls is not given here.
attribute.measured: outcome

>  <compound>
Clc1cc2c(Nc3ccc(Oc4ccccc4)cc3)ccnc2cc1-c1ccc(CNCCN2CCOCC2)o1

>  <outcome>
inactive

$$$$
>  <compound>
CC(C)c1cccc(C(NC(=O)[C@H]2Cc3ccccc3CN2C(=O)c2cccc(N3CCOCC3)c2)C2CCCC2)c1 (some centres undefined)

>  <outcome>
inactive

$$$$
>  <compound>
CN1CCCN(Cc2cccc(-c3ccc(CNC(=O)c4cccc(Cl)c4)c(F)c3)c2)CC1

>  <outcome>
inactive

$$$$
>  <compound>
CC(C)NCc1cccc(-c2ccc(-c3nc4ccccc4[nH]3)cc2)c1

>  <outcome>
inactive

$$$$
>  <compound>
N[C@@H](CCNC1CCN(c2cccc(C(F)(F)F)c2)CC1)Cc1ccc(F)c(F)c1

>  <outcome>
inactive

$$$$
>  <compound>
O=C(Nc1ccc(Cl)cc1)Nc1cccc(CCNCc2ccccc2)c1

>  <outcome>
inactive

$$$$

Can you share its outcome? I mean this compound: Nc1ccc2c(N)c3ccccc3nc2c1
inactive

Same question, CN(C(=O)/C=C/c1ccccc1F)C1CCN(CCCCCNC(=O)/C=C/c2ccc(Cl)c(Cl)c2)CC1 this time
inactive

====

- procedure.summary: inhibition of 3D7 malaria parasite growth – strain 3D7 (AID 2306);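 note: 0% = DMSO wells and 100% = chloroquine plus artemisinin control wells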
- assay.conditions: P. falciparum 3D7 erythrocytic growth, LDH absorbance, 72 h; at 2 µM; hits give high values
attribute.measured: growth inhibition (%)
Note: unit % is implicit; provide only the numeric part.

Use these answered entries as a reference point.
>  <molecule>
O=C(NCc1cccc(F)c1)Nc1ccc(-c2cccc(-c3nc4ccccc4[nH]3)c2)cc1

>  <growth inhibition, %>
86

$$$$
>  <molecule>
Cc1cc2ncc(C(N)=O)c(Nc3ccc(N4CCOCC4)cc3)c2cc1S(C)(=O)=O

>  <growth inhibition, %>
100

$$$$
>  <molecule>
CC(=NNC(=S)NC(c1ccccc1)c1ccccc1)c1ccccn1

>  <growth inhibition, %>
98

$$$$
>  <molecule>
COc1cc(Nc2ccc3cc(S(=O)(=O)N4CCCCC4C)ccc3n2)cc(OC)c1OC (stereo not given)

>  <growth inhibition, %>
88

$$$$
>  <molecule>
Cc1ccc(Cl)cc1NC(=O)c1c(-c2ccccc2Cl)noc1C

>  <growth inhibition, %>
88

$$$$
>  <molecule>
CC(Cc1ccc(NC(=O)c2ccc(CNCCCCc3ccccc3)cc2)cc1)NCCc1cccc(Cl)c1 (stereo not given)

>  <growth inhibition, %>
100

$$$$
>  <molecule>
CN1CCN(C(C(=O)NCc2cc(Cl)cc(Cl)c2)c2ccc(NC(=O)Nc3ccccc3)cc2)CC1 (stereo not given)

>  <growth inhibition, %>
98

$$$$
>  <molecule>
COCCOc1nc(N)nc2ncc(Cc3cc(OC)ccc3OC)c(C)c12

>  <growth inhibition, %>
96

$$$$
>  <molecule>
Cc1cccc2[nH]c(-c3ccc(-c4ccc(CNCCCNS(C)(=O)=O)cc4)s3)nc12

>  <growth inhibition, %>
99

$$$$
>  <molecule>
c1ccc2cc3c(Nc4ccc(N5CCCCC5)cc4)ccnc3cc2c1

>  <growth inhibition, %>
100

$$$$

Can you share its growth inhibition? I mean this molecule: CS(=O)(=O)NCCCNCc1cccc(-c2ccc(-c3nc4ccc(C(F)(F)F)cc4[nH]3)cc2)c1
100

Same question, Cc1ccc(Oc2ccccc2NC(=O)CCc2nc3ccccc3c(=O)[nH]2)cc1 this time
100

Same question, Cc1cc(F)ccc1[C@H]1C[C@H](N2CCOCC2)CCN1C(=O)N(C)[C@@H](C)c1cc(C(F)(F)F)cc(C(F)(F)F)c1 this time
100
